These measurements were taken from PubChem BioAssay (NCI).

Test system: HCT-15 colon
Experiment: NCI tumour cell line growth inhibition, 48 h
Reported TGI values for the following compounds.

Study these solved cases before continuing.
{"Compound": "COC(=O)C(Cc1cc(OC)c(OC)c(OC)c1)(NC(=O)c1ccccc1)P(=O)(OC)OC (configuration not stated)", "TGI": "> 100 µM"}
{"Compound": "COc1cccc(-c2nn(C)c3sc(C(=O)NCCN4CCN(c5ccccc5F)CC4)cc23)c1", "TGI": "15.5 µM"}
{"Compound": "N#C[C@H](c1nc2ccccc2[nH]1)c1nc2ccccc2nc1Cl", "TGI": "> 39.9 µM"}
{"Compound": "CCOC1=NC(C(F)(F)F)(C(F)(F)F)N=C(/N=C(/N)N(C)C(C(C)C)P(=O)(OC(C)C)OC(C)C)O1 (configuration not stated)", "TGI": "> 100 µM"}

Request: Need TGI of Nc1c(C(=O)Nc2cccc3ccccc23)sc2nc3c(cc12)CCCCCC3 , thanks.
Response: > 50 µM

Request: Given the entry O=[N+]([O-])c1ccc(N/N=C\c2ccc(O)cc2O)nc1 , report its measured TGI.
Response: > 100 µM

Request: Can you share its TGI? I mean this compound: CC1=NN(c2cccc(S(=O)(=O)O)c2)C2(C1)SCC(=O)N2c1nc2ccccc2s1 (configuration not stated)
Response: > 100 µM

====

Test system: SNB-78 CNS
Test: NCI tumour cell line growth inhibition, 48 h
Endpoint label: TGI

Below are worked cases with known answers.
{"Compound": "OC1OC2COC(c3ccccc3)OC2C(O)C1O (stereo unspecified)", "TGI": "> 100 µM"}
{"Compound": "Cn1c(=O)c2nc3sc4ccccc4c(=N)n3c2n(C)c1=O", "TGI": "> 100 µM"}
{"Compound": "COC(=O)C1=CCS(=O)(=O)C1", "TGI": "> 100 µM"}
{"Compound": "COc1nc(C(Cl)(Cl)Cl)c(Cl)c(OC)c1Cl", "TGI": "72.3 µM"}
{"Compound": "COc1cc(C2C(C(=O)Nc3ccccc3C)=C(C)NC(C)=C2C(=O)Nc2ccccc2C)ccc1O", "TGI": "> 100 µM"}

Query compound follows.
Request: What does the record list as TGI for O=c1c2ccc(Br)cc2nc(-c2ccccc2)n1NC1OC(CO)C(O)C(O)C1O (stereo unspecified) ?
Response: > 100 µM

====

Tested on: U251 CNS
// classify into active, inactive

{"Molecule": "COc1ccc2nc3c(cc2c1)C(=O)CC(C(F)(F)F)C3 (configuration not stated)", "Discrete label": "inactive"}
{"Molecule": "Cn1cc(C2=C(c3cn(CCCN/C(N)=N\\[N+](=O)[O-])c4ccccc34)C(=O)NC2=O)c2ccccc21", "Discrete label": "inactive"}
{"Molecule": "Cc1cc(=O)[nH]c2c1C(=O)C(=O)C=C2", "Discrete label": "inactive"}
{"Molecule": "CCCCCCCCCCCC(=O)[O][Sn]([CH2]CCC)([CH2]CCC)[CH2]CCC", "Discrete label": "active"}
{"Molecule": "N=C(N)c1ccc(-c2ccc(-c3ccccc3)o2)o1", "Discrete label": "inactive"}

Request: Assay result, entry CCOc1ccc(-n2cc(-c3ccc(N(C)C)cc3)[n+]3c2CCCCC3)cc1 — outcome?
Response: active

Request: Short answer needed: outcome of this test for O=C1/C=C/[C@@H](O)[C@@H]2C[C@@H](O)C[C@H]2/C=C/CCCCO1 ?
Response: active

====

Below is a list of entries, each paired with its recorded TGI value.
Test system: A549 NSCLC
Assay: NCI tumour cell line growth inhibition, 48 h

{"Compound": "FC1(F)SC2CCCCCCCCCCC2C1(F)F (stereo unspecified)", "Observed result": "> 100 µM"}
{"Compound": "CN(CC(=O)O)Cc1c[nH]c2ccccc12", "Observed result": "> 100 µM"}
{"Compound": "Nc1nc(-c2ccccc2Cl)cc(-c2ccc(Cl)cc2Cl)n1", "Observed result": "> 100 µM"}
{"Compound": "COc1ccc(-c2cc(-c3ccncc3)nc(N)c2-c2ccc(F)cc2)cc1", "Observed result": "> 100 µM"}
{"Compound": "Cc1cnc2n(c1=O)Cc1ccccc1CO2", "Observed result": "> 100 µM"}

Request: Looking for the measured TGI of OC(c1cc2c(Cl)cc(Cl)cc2c2cc(C(F)(F)F)ccc12)C1CCCCN1 (stereo unspecified) , can you help?
Response: 3.68 µM

====

System: SF-268 CNS
Assay: NCI tumour cell line growth inhibition, 48 h
This listing pairs molecules with measured GI50.

{"Smiles data": "CCOc1ccc(-n2cc(-c3ccc(N(C)C)cc3)[n+]3c2CCCCC3)cc1", "GI50": "2200 nM"}
{"Smiles data": "COc1ccc(-c2nn(C(=O)c3cc(OC)c(OC)c(OC)c3)c3cc(N)ccc23)cc1", "GI50": "< 14.8 nM"}

Request: Provide the documented GI50 with SF-268 CNS as the system for COc1cc(/C=C/C(=O)c2ccc(SC)cc2)cc(OC)c1OC
Response: 16000 nM

Request: # returns recorded GI50 (system: SF-268 CNS) for CCCCCCOc1ccc(/C=N/Nc2cc(C)nc3ccc(Br)cc23)cc1
Response: 2070 nM

Request: GI50 of COc1cc2c(cc1OC)-c1c(c3ccc([N+](=O)[O-])cc3c(=O)n1CCCBr)C2=O on SF-268 CNS?
Response: 29000 nM

====

Test system: SK-MEL-28 melanoma
Test: NCI tumour cell line growth inhibition, 48 h; in the data active = GI50 below about 0.43 µM; inactive = the rest
Log the outcome using a class from t = active, f = inactive

Some entries whose results are on file:
{"Compound": "CCOc1ccc(-n2cc(-c3ccc(N(C)C)cc3)[n+]3c2CCCCC3)cc1", "Study system": "SK-MEL-28 melanoma", "Discrete label": "f"}
{"Compound": "COc1cc(Cl)c(C)cc1NC(=O)c1cc2ccccc2cc1O", "Study system": "SK-MEL-28 melanoma", "Discrete label": "f"}
{"Compound": "NC(CSC(c1ccccc1)(c1ccccc1)c1ccc(Br)cc1)C(=O)O (centres undefined)", "Study system": "SK-MEL-28 melanoma", "Discrete label": "t"}

Below: the item to evaluate.
Request: For this compound, state the assay outcome: COC(=O)/C=C/c1cc(OC)c2c(c1)[C@@H](C(=O)OC)[C@H](c1ccc(OC)c(OC)c1)O2
Response: f

====

Each record here notes measured TGI.
Test system: HOP-92 NSCLC
Test: NCI tumour cell line growth inhibition, 48 h

Sample records with TGI:
{"Molecule": "C[C@H](OC(=O)/C=C/c1ccc(O)c(O)c1)[C@H](C)OC(=O)/C=C/c1ccc(O)c(O)c1", "Endpoint label": "TGI", "Observed result": "38.2 µM"}
{"Molecule": "Nc1nc(-c2ccccc2Cl)cc(-c2ccc(Cl)cc2Cl)n1", "Endpoint label": "TGI", "Observed result": "7.62 µM"}
{"Molecule": "COc1ccc(S(=O)(=O)Nc2c(/C=C\\c3cc(OC)c(OC)c(OC)c3)ccc(OC)c2O)cc1OC", "Endpoint label": "TGI", "Observed result": "> 100 µM"}

Request: What does the data say about its TGI? Entry: O=C(c1ccccc1)C(c1ccccc1)C1(O)C(=O)Nc2ccc(Br)cc21 (stereo unspecified)
Response: > 100 µM

Request: What measured TGI goes with CCc1cc(Cc2cc(CC)cc(C(C)(C)C)c2O)c(O)c(C(C)(C)C)c1 ?
Response: 7.97 µM

Request: Quick check: TGI of COc1cccc(-c2nn(C)c3sc(C(=O)NCCN4CCN(c5ccccc5F)CC4)cc23)c1 ?
Response: > 100 µM

Request: Value lookup for TGI; key = CCOC(=O)C(/C=N/C(N)=S)=C(/O)c1ccccc1
Response: > 100 µM

Request: Item COc1cc(-c2nc3cc(Cl)c(Cl)cc3[nH]2)ccc1OCC(=O)N=Nc1c(O)[nH]c2ccccc12 has what recorded TGI?
Response: 2.42 µM

Request: TGI for O=P1(NCCCl)OCCC(OO)N1CCCl (stereo unspecified) ?
Response: 33.4 µM

Request: # lookup: TGI of CCCCCC(=O)OC[n+]1ccc(-c2c(COC(=O)NC(C)C)c(COC(=O)NC(C)C)c3n2CCC3)cc1
Response: > 100 µM

Request: I'd like to know its TGI. The molecule in question is Cn1c(=O)ccc2cc(C(=O)c3ccccc3)ccc21
Response: > 100 µM

====

Tested on: SK-MEL-2 melanoma
Test: NCI tumour cell line growth inhibition, 48 h
Endpoint label: TGI

Use these answered entries as a reference point.
{"Molecule": "Cc1cc(=O)[nH]c2c1C(=O)C(=O)C=C2", "TGI": "> 100 µM"}
{"Molecule": "O=P1(NCCCl)OCCC(OO)N1CCCl (stereo not given)", "TGI": "> 100 µM"}
{"Molecule": "O=C(CCCN1CCC(Nc2ccc(F)cc2)(c2nnnn2C2CCCCC2)CC1)c1ccc(F)cc1", "TGI": "40.7 µM"}
{"Molecule": "O=c1ccc2c(Cl)sc(Cl)c2[nH]1", "TGI": "> 100 µM"}
{"Molecule": "CC(NC(=O)C1(N)CCCC1)C(=O)O (stereo not given)", "TGI": "> 100 µM"}

Request: Name the recorded TGI for CSc1nc(NC2OC(CO)C(O)C(O)C2O)c(N)c(=O)[nH]1 (stereo not given) .
Response: > 100 µM

Request: Consider the molecule shown here: CCCCCC(=O)OC[n+]1ccc(-c2c(COC(=O)NC(C)C)c(COC(=O)NC(C)C)c3n2CCC3)cc1 What is its recorded TGI?
Response: > 100 µM

Request: Name the reported TGI value associated with the molecule COc1ccc([C@H]2C=C(c3cc(F)c(Cl)cc3Cl)N=c3s/c(=C\c4ccc(-c5ccc(Cl)cc5Cl)o4)c(=O)n32)cc1
Response: 48.3 µM

Request: Would you kindly share the measured TGI for O=c1cc(/C=C/c2ccccc2)c2ccc(O/C(=C\c3ccccc3)c3nc4ccccc4c(=O)o3)cc2o1 ?
Response: 77.7 µM

Request: State the recorded TGI for this entry: CC(C)[Si](CC1=CCCCC12C(=O)N(COCC[Si](C)(C)C)c1ccccc12)(C(C)C)C(C)C (stereo not given)
Response: > 100 µM

Request: TGI for Cc1nc(N(C)C)nc(-c2cccc(-c3ccn(CCN(C)C)n3)c2)c1C ?
Response: > 20 µM

Request: Consider the molecule shown here: C[C@@H](Br)[C@@H]1CC[C@H]2c3[nH]c4ccccc4c3CCN2C1 What is its recorded TGI?
Response: 50.6 µM

Request: If you can, please state the reported TGI value of c1ccc(Oc2cnc3ccccc3n2)cc1 .
Response: > 100 µM

Request: Item O=C1OC(=O)C2C1C1(c3ccccc3)OC2(c2ccccc2)c2c(Br)c(Br)c(Br)c(Br)c21 (stereo not given) has what recorded TGI?
Response: > 100 µM

Request: What value of measured TGI is listed for Cc1csc(CP(=O)(OC(C)C)OC(C)C)n1 ?
Response: > 100 µM
